Biological target: GTPase KRas (Homo sapiens, UniProt P01116, G12V)
Assay: Inhibition of alexa fluor 647-labeled kinase tracer 314 binding to biotinylated-KRAS G12V mutant (unknown origin) measured after 60 mins by HTRF competition binding assay
Conditions: read-out: IC50
Some molecules, each annotated with its measured log10 IC50.
Values reflect log10 of reported IC50 (µM).

>>> value_observed("CC(C)C[C@H](NC(=O)[C@@H]1COCc2cnnn2CCCCC(=O)N[C@@H](CCC(=O)O)C(=O)N2CCC[C@H]2C(=O)N[C@@H](Cc2cccc3ccccc23)C(=O)N1)C(N)=O")
1.69
>>> value_observed("C=C1/C=C/COC[C@@H](C(=O)N[C@@H](CC(C)C)C(N)=O)NC(=O)[C@H]([C@@H](C)CC)NC(=O)[C@@H]2CCCN2C(=O)CNC(=O)C1")
1.99
>>> value_observed("CC[C@H](C)[C@@H]1NC(=O)[C@@H]2CCCN2C(=O)CNC(=O)CCCCn2nncc2COC[C@@H](C(=O)N[C@@H](CC(C)C)C(N)=O)NC1=O")
2.00
>>> value_observed("CC(C)C[C@H](NC(=O)[C@@H]1COCc2cnnn2CCCCC(=O)NCC(=O)N2CCC[C@H]2C(=O)N[C@@H](Cc2cccs2)C(=O)N1)C(N)=O")
1.72
>>> value_observed("CC(C)C[C@H](NC(=O)[C@@H]1COCc2cnnn2CCCCC(=O)N[C@H](CCC(=O)O)C(=O)N2CCC[C@H]2C(=O)N[C@@H](Cc2cccc3ccccc23)C(=O)N1)C(N)=O")
2.00

Input: What value of log10 IC50 has been reported for the following molecule? CC(C)C[C@H](NC(=O)[C@@H]1COCc2cnnn2CCCCC(=O)NCC(=O)N2C[C@H](O)C[C@H]2C(=O)N[C@@H](Cc2cccc3ccccc23)C(=O)N1)C(N)=O
Output: 1.98

Input: Note, next up: CC(C)C[C@H](NC(=O)[C@H]1Cn2nncc2CCCC(=O)NCC(=O)N2CCC[C@H]2C(=O)N[C@@H](Cc2cccc3ccccc23)C(=O)N1)C(N)=O
Output: 1.49

Input: Note, next up: CC(C)C[C@H](NC(=O)[C@@H]1COCc2cnnn2CCCCC(=O)NCC(=O)N2CCOC[C@H]2C(=O)N[C@@H](Cc2cccc3ccccc23)C(=O)N1)C(N)=O
Output: 0.81

Input: Note, next up: CC(C)C[C@H](NC(=O)[C@@H]1COCc2cnnn2CCCCC(=O)NCC(=O)N2CCC[C@H]2C(=O)N[C@@H](CC2CCCCC2)C(=O)N1)C(N)=O
Output: 2.00

Input: Note, next up: CC(C)C[C@H](NC(=O)[C@@H]1COCc2cnnn2CCCCCCCC(=O)N2CCC[C@H]2C(=O)N[C@@H](Cc2cccc3ccccc23)C(=O)N1)C(N)=O
Output: 1.91

Input: Note, next up: CC(C)C[C@H](NC(=O)[C@@H]1COCc2cnnn2CCCCC(=O)NCC(=O)NC(C)(C)C(=O)N[C@@H](Cc2cccc3ccccc23)C(=O)N1)C(N)=O
Output: 1.30
